Where these numbers come from: ChEMBL document CHEMBL1146869

measured-on: Prostaglandin G/H synthase 1 (Ovis aries, UniProt P05979)
Sequence (P05979 whole entry): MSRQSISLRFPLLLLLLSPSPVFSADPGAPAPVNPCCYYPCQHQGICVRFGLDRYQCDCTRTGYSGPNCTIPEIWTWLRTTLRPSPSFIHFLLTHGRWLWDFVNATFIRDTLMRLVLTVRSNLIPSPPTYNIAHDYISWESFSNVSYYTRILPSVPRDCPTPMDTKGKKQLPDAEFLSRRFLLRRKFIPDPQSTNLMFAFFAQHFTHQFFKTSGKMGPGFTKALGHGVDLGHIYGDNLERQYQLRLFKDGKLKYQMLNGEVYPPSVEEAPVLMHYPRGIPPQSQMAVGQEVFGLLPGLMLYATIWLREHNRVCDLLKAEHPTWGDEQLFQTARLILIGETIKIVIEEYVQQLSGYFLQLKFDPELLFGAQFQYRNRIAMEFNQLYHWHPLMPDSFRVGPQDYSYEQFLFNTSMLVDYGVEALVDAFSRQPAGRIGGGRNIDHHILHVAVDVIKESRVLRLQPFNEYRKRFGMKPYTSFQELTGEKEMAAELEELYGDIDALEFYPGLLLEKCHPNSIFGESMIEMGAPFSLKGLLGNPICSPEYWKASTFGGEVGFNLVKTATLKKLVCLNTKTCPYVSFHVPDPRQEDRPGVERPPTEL
property-name: IC50 (nM)

{"columns": ["molecule-smiles", "unit-name", "result"],
 "data": [
  ["Cc1ccc(-c2cc(C(F)(F)F)nn2-c2ccc(-c3nnn[nH]3)cc2)cc1", "nM", 4.1]
]}
